Attribution: patent US20160060260A1

Recorded measurements of IC50, one per entry
SUBJECT_OF_TEST: Recombinant human His-tagged Trim24-PHD-bromodomain (Homo sapiens)
Construct: Recombinant human His-tagged Trim24-PHD-bromodomain (produced in-house)
Sequence (O15164 824-1006 limits assumed): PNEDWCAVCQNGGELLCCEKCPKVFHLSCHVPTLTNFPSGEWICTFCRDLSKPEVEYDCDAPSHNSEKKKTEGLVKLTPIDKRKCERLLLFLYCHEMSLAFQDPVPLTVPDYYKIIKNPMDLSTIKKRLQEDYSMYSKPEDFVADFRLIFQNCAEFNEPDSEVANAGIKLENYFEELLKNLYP
MEASUREMENT_DESCRIPTION: Trim24 AlphaScreen Assay
TEST_CONTEXT: 5 nM Trim24 protein, 15 nM biotinylated H3K23ac (1-33aa) peptide

COMPOUND | SUBJECT_OF_TEST | IC50
CCCOc1cc(Oc2cc3c(cc2NS(=O)(=O)c2cn(C)cn2)n(C)c(=O)n3C)ccc1F | Recombinant human His-tagged Trim24-PHD-bromodomain (Homo sapiens) | 0.01 to 0.1 µM
Cn1c(=O)n(C)c2cc(Oc3cccc(OCc4ccccc4)c3)c(NS(=O)(=O)c3ccccc3)cc21 | Recombinant human His-tagged Trim24-PHD-bromodomain (Homo sapiens) | > 1 µM
CCCOc1cc(OCCCOC)cc(Oc2cc3c(cc2NS(=O)(=O)c2cccc4c2OCCO4)n(C)c(=O)n3C)c1 | Recombinant human His-tagged Trim24-PHD-bromodomain (Homo sapiens) | 0.1 to 1 µM
CCCOc1cc(OCCCCCCN)cc(Oc2cc3c(cc2N(C)S(=O)(=O)c2ccc(OC)c(OC)c2)n(C)c(=O)n3C)c1 | Recombinant human His-tagged Trim24-PHD-bromodomain (Homo sapiens) | 0.1 to 1 µM
COCCCOc1cc(C#N)cc(Oc2cc3c(cc2NS(=O)(=O)c2ccn(C)n2)n(C)c(=O)n3C)c1 | Recombinant human His-tagged Trim24-PHD-bromodomain (Homo sapiens) | 0.1 to 1 µM
CCCOc1cc(OCCCCCCO)cc(Oc2cc3c(cc2NS(=O)(=O)c2cn(C)cn2)n(C)c(=O)n3C)c1 | Recombinant human His-tagged Trim24-PHD-bromodomain (Homo sapiens) | 0.01 to 0.1 µM
CCCOc1cc(OCCCCCCN)cc(Oc2cc3c(cc2NS(=O)(=O)c2cnn(C)c2C)n(C)c(=O)n3C)c1 | Recombinant human His-tagged Trim24-PHD-bromodomain (Homo sapiens) | 0.001 to 0.01 µM
CCCOc1cccc(Oc2cc3c(cc2NS(=O)(=O)c2cn(C)c(C)n2)n(C)c(=O)n3C)c1 | Recombinant human His-tagged Trim24-PHD-bromodomain (Homo sapiens) | 0.01 to 0.1 µM
CCCOc1cc(OCCCCCCNC(C)=O)cc(Oc2cc3c(cc2NS(=O)(=O)c2cn(C)cn2)n(C)c(=O)n3C)c1 | Recombinant human His-tagged Trim24-PHD-bromodomain (Homo sapiens) | 0.01 to 0.1 µM
CCCOc1cc(OCCCCN2CCC(O)C2)cc(Oc2cc3c(cc2NS(=O)(=O)c2ccc(OC)c(OC)c2)n(C)c(=O)n3C)c1 (centres unmarked) | Recombinant human His-tagged Trim24-PHD-bromodomain (Homo sapiens) | 0.01 to 0.1 µM
CCCOc1cc(OCCCCCCN)cc(Oc2cc3c(cc2NS(=O)(=O)c2ccc(OC)c(OC)c2)n(C)c(=O)n3C)c1 | Recombinant human His-tagged Trim24-PHD-bromodomain (Homo sapiens) | 0.01 to 0.1 µM
C=CCOc1cccc(Oc2cc3c(cc2NS(=O)(=O)c2cn(C)cn2)n(C)c(=O)n3C)c1 | Recombinant human His-tagged Trim24-PHD-bromodomain (Homo sapiens) | 0.1 to 1 µM
CCCOc1cc(OCCCOC)cc(Oc2cc3c(cc2NS(=O)(=O)c2ccccn2)n(C)c(=O)n3C)c1 | Recombinant human His-tagged Trim24-PHD-bromodomain (Homo sapiens) | 0.01 to 0.1 µM
Cn1c(=O)n(C)c2cc(Oc3cccc(OCC4CC4)c3)c(NS(=O)(=O)c3cn[nH]c3)cc21 | Recombinant human His-tagged Trim24-PHD-bromodomain (Homo sapiens) | 0.1 to 1 µM
Cc1nc(S(=O)(=O)Nc2cc3c(cc2Oc2cccc(OCc4ccccc4)c2)n(C)c(=O)n3C)cn1C | Recombinant human His-tagged Trim24-PHD-bromodomain (Homo sapiens) | 0.1 to 1 µM
COc1cc(OCC(C)C)cc(Oc2cc3c(cc2NS(=O)(=O)C2CC2)n(C)c(=O)n3C)c1 | Recombinant human His-tagged Trim24-PHD-bromodomain (Homo sapiens) | 0.01 to 0.1 µM
Cn1c(=O)n(C)c2cc(Oc3cc(OCCCCCCN)cc(OCC(F)(F)F)c3)c(NS(=O)(=O)c3cccnc3)cc21 | Recombinant human His-tagged Trim24-PHD-bromodomain (Homo sapiens) | 0.001 to 0.01 µM

====

SUBJECT_OF_TEST: Recombinant human His-tagged Trim24-PHD-bromodomain (Homo sapiens, UniProt O15164)
Construct: Recombinant human His-tagged Trim24-PHD-bromodomain (produced in-house)
MEASUREMENT_DESCRIPTION: Trim24 AlphaScreen Assay
TEST_CONTEXT: 5 nM Trim24 protein, 15 nM biotinylated H3K23ac (1-33aa) peptide
pIC50: −log10 of the molar value.
TEST_READOUT: pIC50

COMPOUND | TEST_READOUT | VALUE
Cn1cnc(S(=O)(=O)Nc2cc3c(cc2Oc2cccc(OCc4ccc(Cl)nc4)c2)n(C)c(=O)n3C)c1 [Example 3] | pIC50 | < 6.00
Cn1c(=O)n(C)c2cc(Oc3cccc(OCC(F)(F)F)c3)c(NS(=O)(=O)c3c[nH]cn3)cc21 [Example 88] | pIC50 | 7.00 to 8.00
CCCOc1cc(OCCC)cc(Oc2cc3c(cc2NS(=O)(=O)c2cn(C)c(C)n2)n(C)c(=O)n3C)c1 [Example 90] | pIC50 | 7.00 to 8.00
Cn1c(=O)n(C)c2cc(Oc3cccc(OCC(F)(F)F)c3)c(NS(=O)(=O)C3CCOC3)cc21 (stereo not drawn) [Example 95] | pIC50 | 6.00 to 7.00
Cc1cccc(S(=O)(=O)Nc2cc3c(cc2Oc2cccc(OCc4ccccc4)c2)n(C)c(=O)n3C)c1 [Example 34] | pIC50 | 6.00 to 7.00
Cn1cnc(S(=O)(=O)Nc2cc3c(cc2Oc2cccc(OCC#N)c2)n(C)c(=O)n3C)c1 [Example 76] | pIC50 | 6.00 to 7.00
Cn1cnc(S(=O)(=O)Nc2cc3c(cc2Oc2cccc(OCC4CCOC4)c2)n(C)c(=O)n3C)c1 (stereo not drawn) [Example 64] | pIC50 | 6.00 to 7.00
CCCOc1cccc(Oc2cc3c(cc2NS(=O)(=O)C2CC2)n(C)c(=O)n3C)c1 [Example 82] | pIC50 | 6.00 to 7.00
CCCOc1cc(OCCCOC)cc(Oc2cc3c(cc2NS(=O)(=O)c2cccc(C(C)C)c2)n(C)c(=O)n3C)c1 [Example 164] | pIC50 | 6.00 to 7.00
C=CCOc1cccc(Oc2cc3c(cc2NS(=O)(=O)c2ccccn2)n(C)c(=O)n3C)c1 [Example 144] | pIC50 | 6.00 to 7.00
Cc1c(S(=O)(=O)Nc2cc3c(cc2Oc2cc(OCCCCCCN(C)C)cc(OCC(F)(F)F)c2)n(C)c(=O)n3C)cnn1C [Example 215] | pIC50 | 8.00 to 9.00
COc1ccc(S(=O)(=O)Nc2cc3c(cc2Oc2cc(OCCCCCCN)cc(OCC(F)(F)F)c2)n(C)c(=O)n3C)cn1 [Example 203] | pIC50 | 7.00 to 8.00
CCCOc1cc(OCCCN)cc(Oc2cc3c(cc2NS(=O)(=O)c2ccc(OC)c(OC)c2)n(C)c(=O)n3C)c1 [Example 216] | pIC50 | 7.00 to 8.00
CCCOc1cc(OCCCCCCO)cc(Oc2cc3c(cc2NS(=O)(=O)c2cccc(C(=O)OC)c2)n(C)c(=O)n3C)c1 [Example 185] | pIC50 | 6.00 to 7.00
CCc1cccc(S(=O)(=O)Nc2cc3c(cc2Oc2cccc(OCc4ccccc4)c2)n(C)c(=O)n3C)c1 [Example 33] | pIC50 | < 6.00

====

SUBJECT_OF_TEST: Recombinant human His-tagged Trim24-PHD-bromodomain (Homo sapiens)
Construct: Recombinant human His-tagged Trim24-PHD-bromodomain (produced in-house); made in house
MEASUREMENT_DESCRIPTION: Trim24 AlphaScreen Assay
Assay type: binding
TEST_CONTEXT: 5 nM Trim24 protein, 15 nM biotinylated H3K23ac (1-33aa) peptide
Protocol: Recombinant human His-tagged Trim24-PHD-bromodomain (produced in-house), biotinylated H3K23ac (1-33aa) peptide (AnaSpec, Inc.), and test compound were added to a 384-well OptiPlate (Perkin Elmer) and incubated at room temperature for one hour. […] The average maximum signal was obtained from wells containing all assay components except test compound. […] IC50 values were calculated using a four-parameter logistic curve fit.

MOLECULE | IC50
COc1ccc(S(=O)(=O)Nc2cc3c(cc2Oc2cc(OCCCCCCN)cc(OCC(F)(F)F)c2)n(C)c(=O)n3C)cc1OC [Example 194] | 10 to 100 nM
COCCOc1cccc(Oc2cc3c(cc2NS(=O)(=O)c2cn(C)c(C)n2)n(C)c(=O)n3C)c1 [Example 53] | 100 to 1000 nM
CCCOc1cccc(Oc2cc3c(cc2NS(=O)(=O)c2ccc(OC)cc2)n(C)c(=O)n3C)c1 [Example 171] | 100 to 1000 nM
Cn1c(=O)n(C)c2cc(Oc3cccc(OCC(F)(F)F)c3)c(NS(=O)(=O)c3cccnc3)cc21 [Example 125] | 10 to 100 nM
COc1cc(OC)cc(S(=O)(=O)Nc2cc3c(cc2Oc2cccc(OCc4ccccc4)c2)n(C)c(=O)n3C)c1 [Example 44] | 100 to 1000 nM
CCCOc1cc(OCCCOC)cc(Oc2cc3c(cc2NS(=O)(=O)c2cn4c(n2)CCCC4)n(C)c(=O)n3C)c1 [Example 140] | 10 to 100 nM
